// data source = patent US12024500B2

tested on: Veronica polita; test: Post-emergence weed control test (greenhouse pot, spray); format: in vivo; details: 3000 g/ha, 3 weeks after spraying
readout: weed control effect (activity level, fresh weight growth inhibition rate), Veronica polita

Recorded weed control effect (activity level, fresh weight growth inhibition rate), Veronica polita (compound Cn1nc(C2CC2)cc1-c1nnc(C(F)(F)C(F)(F)F)cc1O ): 10 (Level 10: completely dead)

Short answer for Cn1nc(C(F)F)cc1-c1nnc(Cl)cc1O : weed control effect (activity level, fresh weight growth inhibition rate), Veronica polita was 10 (Level 10: completely dead)

Documented weed control effect (activity level, fresh weight growth inhibition rate), Veronica polita of Cn1nc(Cl)cc1-c1nnc(Cl)cc1O : 10 (Level 10: completely dead)

So for Cn1nc(C#N)cc1-c1nnc(Cl)cc1O , the logged weed control effect (activity level, fresh weight growth inhibition rate), Veronica polita turned out to be 10 (Level 10: completely dead)

// weed control effect (activity level, fresh weight growth inhibition rate), Veronica polita value for Cn1nccc1-c1nnc(Cl)cc1O : 10 (Level 10: completely dead)

Measured weed control effect (activity level, fresh weight growth inhibition rate), Veronica polita of Cn1nc(-c2ccccc2)cc1-c1nnc(Cl)cc1O : 10 (Level 10: completely dead)

Briefly, weed control effect (activity level, fresh weight growth inhibition rate), Veronica polita measured for Cc1ccc(-c2nnc(Cl)cc2O)s1 : 10 (Level 10: completely dead)

Documented weed control effect (activity level, fresh weight growth inhibition rate), Veronica polita of Cn1nc(F)cc1-c1nnc(Cl)cc1O : 10 (Level 10: completely dead)

Value of weed control effect (activity level, fresh weight growth inhibition rate), Veronica polita reported for the compound Cn1cncc1-c1nnc(Cl)cc1O is 10 (Level 10: completely dead)

Query Cn1ncc(I)c1-c1nnc(Cl)cc1O yields weed control effect (activity level, fresh weight growth inhibition rate), Veronica polita of 10 (Level 10: completely dead)

The compound Cn1ccnc1-c1nnc(Cl)cc1O showed weed control effect (activity level, fresh weight growth inhibition rate), Veronica polita equal to 10 (Level 10: completely dead)

###

tested on: Veronica polita; assay: Post-emergence weed control test (greenhouse pot, spray); assay type: in vivo; conditions: 300 g/ha, 3 weeks after spraying
readout: weed control effect (activity level), Veronica polita, comparison experiment
# answer = number (no unit)

The reported value for N#Cc1ccc(-c2nnc(Cl)cc2O)s1 in terms of weed control effect (activity level), Veronica polita, comparison experiment is 10

Noted for CCCCCOC(=O)Oc1cc(Cl)nnc1-c1cc(C)nn1C : its weed control effect (activity level), Veronica polita, comparison experiment reads 10

Reported weed control effect (activity level), Veronica polita, comparison experiment of Cc1cc(-c2nnc(Cl)cc2O)n(C)n1 : 10
